target: rat adrenergic α1B receptor (Rattus norvegicus); construct: rat adrenergic α1B receptor obtained from Wistar Rat liver; from tissue; host or cells: Wistar rat liver; experiment: Radioligand binding, adrenergic α1B receptor ([3H]Prazosin); settings: 0.1 μM compound, Wistar rat liver, read-out: Percentage inhibition of ligand binding, Adrenergic α1B
Outcome: condition met for inhibition at 0.1 µM of at least 30%; condition not met for anything lower.

Observe how each entry below is paired with its result.
1. Cc1ccc2c(c1)c1c(n2-c2ccsc2)CCN(C)C1 [Compound 14] ... condition met
2. Cc1ccc2c(c1)c1c(n2-c2ccc(-c3ccc4c(ccn4C)c3)cn2)CCN(C)C1 [Compound No. 136] ... condition met
3. CNC(=O)c1ccc(-c2cccc(-n3c4c(c5cc(C)ccc53)CN(C)CC4)c2)cn1 [Compound No. 75] ... condition not met
4. Cc1cc(C)c2c(c1)c1c(n2-c2cccc3ncccc23)CCN(C)C1 [Compound 47] ... condition not met
5. Cc1ccc2c(c1)c1c(n2-c2cscc2-c2ccc3cnccc3c2)CCN(C)C1 [Compound No. 68] ... condition met
6. Cc1ccc2c(c1)c1c(n2-c2ccccc2-c2ccc(F)nc2)CCN(C)C1 [Compound No. 84] ... condition met
7. Cc1ccc2c(c1)c1c(n2-c2cccc(-c3ccc(F)cc3)c2)CCN(C)C1 [Compound No. 61] ... condition not met
8. Cc1ccc2c(c1)c1c(n2-c2cscc2-c2cnn(C)c2)CCN(C)C1 [Compound 30] ... condition met
9. Cc1ccc2c(c1)c1c(n2-c2cccc(-c3cccn3C)c2)CCN(C)C1 [Compound No. 69] ... condition not met
10. Cc1ccc2c(c1)c1c(n2-c2cccc(-c3ccc(C)nc3)c2)CCN(C)C1 [Compound 60] ... condition not met

Ask | Quick check, inhibition at 0.1 µM >= 30%? Cc1ccc2c(c1)c1c(n2-c2ccc3cnccc3c2)CCN(C)C1 [Compound 38]
Reply | condition met

Ask | Confirm if inhibition at 0.1 µM reported for the molecule Cc1ccc2c(c1)c1c(n2-c2cscc2-c2ccc(O)nc2)CCN(C)C1 [Compound 49] is 30% or above.
Reply | condition not met

Ask | Determine whether this molecule has inhibition at 0.1 µM no lower than 30%: CNC(=O)c1ccc(-c2cscc2-n2c3c(c4cc(C)ccc42)CN(C)CC3)cc1 [Compound No. 155]
Reply | condition met

----------
target: rat adrenergic α1B receptor (Rattus norvegicus); construct: rat adrenergic α1B receptor obtained from Wistar Rat liver; from tissue; host or cells: Wistar rat liver; assay: Radioligand binding, adrenergic α1B receptor ([3H]Prazosin); details: 0.1 μM compound, Wistar rat liver, read-out: Percentage inhibition of ligand binding, Adrenergic α1B
Exercise: for every item that follows, state its recorded inhibition at 0.1 µM.

Guide cases for inhibition at 0.1 µM, answers given:
1) Cc1ccc2c(c1)c1c(n2-c2cscc2-c2ccc(C)s2)CCN(C)C1 ... 51%
2) Cc1ccc2c(c1)c1c(n2-c2cscc2-c2c(C)noc2C)CCN(C)C1 ... 32%
3) Cc1ccc2c(c1)c1c(n2-c2cccs2)CCN(C)C1 ... 8%
4) Cc1cc(C)c2c(c1)c1c(n2-c2ccc3ncccc3c2)CCN(C)C1 ... 1%
5) Cc1ccc2c(c1)c1c(n2-c2cscc2-c2ccc(F)nc2)CCN(C)C1 ... 67%
6) Cc1ccc2c(c1)c1c(n2-c2ccccc2-c2sccc2C)CCN(C)C1 ... 57%

Give me inhibition at 0.1 µM for each of these compounds, listed below.
1. Cc1ccc2c(c1)c1c(n2-c2ccc(-c3cccc4[nH]ncc34)cn2)CCN(C)C1
2. Cc1ccc2c(c1)c1c(n2-c2cccc(-c3ccc4[nH]cnc4c3)c2)CCN(C)C1
3. Cc1ccc2c(c1)c1c(n2-c2cccc(-c3ccc4c(ccn4C)c3)c2)CCN(C)C1

Reply |
["72%", "8%", "8%"]

----------
Biological target: rat adrenergic α1B receptor (Rattus norvegicus, UniProt P15823)
Construct: rat adrenergic α1B receptor obtained from Wistar Rat liver; from tissue; host or cells: Wistar rat liver
Sequence (P15823 1-515): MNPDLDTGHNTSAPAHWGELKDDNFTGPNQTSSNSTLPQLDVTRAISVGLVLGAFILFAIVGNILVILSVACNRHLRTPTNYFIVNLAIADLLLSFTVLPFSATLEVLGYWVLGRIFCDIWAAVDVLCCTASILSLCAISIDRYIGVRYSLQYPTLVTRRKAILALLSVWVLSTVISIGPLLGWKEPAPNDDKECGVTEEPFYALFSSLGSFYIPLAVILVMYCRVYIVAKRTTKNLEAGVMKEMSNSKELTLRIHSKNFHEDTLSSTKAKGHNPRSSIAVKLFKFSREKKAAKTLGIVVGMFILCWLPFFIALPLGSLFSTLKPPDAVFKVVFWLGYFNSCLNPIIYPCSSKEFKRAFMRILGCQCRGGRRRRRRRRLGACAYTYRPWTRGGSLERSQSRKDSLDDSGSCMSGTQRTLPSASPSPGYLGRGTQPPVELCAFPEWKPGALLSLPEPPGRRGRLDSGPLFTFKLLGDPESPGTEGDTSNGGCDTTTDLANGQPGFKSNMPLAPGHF
Experiment: Radioligand binding, adrenergic α1B receptor ([3H]Prazosin)
Conditions: 0.1 μM compound, Wistar rat liver, read-out: Percentage inhibition of ligand binding, Adrenergic α1B
Bucketed by reported inhibition at 0.1 µM, buckets being class A (below 20%), class B (20% to below 70%), class C (70% or more)

1) Cc1ccc2c(c1)c1c(n2-c2ccccc2-c2ccc3c(ccn3C)c2)CCN(C)C1 ... class B
2) Cc1ccc2c(c1)c1c(n2-c2ccccc2-c2ccc(O)nc2)CCN(C)C1 ... class A
3) Cc1ccc2c(c1)c1c(n2-c2ccc(-c3cnc(N(C)C)nc3)cn2)CCN(C)C1 ... class C
4) Cc1csc(-c2cccc(-n3c4c(c5cc(C)ccc53)CN(C)CC4)c2)c1 ... class A
5) Cc1ccc2c(c1)c1c(n2-c2ccccc2-c2cc3ccccc3s2)CCN(C)C1 ... class B

Ask | Kindly state the category for this molecule: `Cc1ccc2c(c1)c1c(n2-c2cccc(-c3ccc(S(C)(=O)=O)cc3)c2)CCN(C)C1`
Reply | class A

----------
target: human recombinant adrenergic α1D receptor (Homo sapiens, UniProt P25100); construct: expressed in transfected cells; host or cells: HEK-293; assay: Radioligand binding, adrenergic α1D receptor ([3H]Prazosin); conditions: 0.1 μM compound; HEK-293 cells; 0.6 nM [3H]Prazosin; read-out: Percentage inhibition of ligand binding, Adrenergic α1D
Sequence (P25100 whole entry): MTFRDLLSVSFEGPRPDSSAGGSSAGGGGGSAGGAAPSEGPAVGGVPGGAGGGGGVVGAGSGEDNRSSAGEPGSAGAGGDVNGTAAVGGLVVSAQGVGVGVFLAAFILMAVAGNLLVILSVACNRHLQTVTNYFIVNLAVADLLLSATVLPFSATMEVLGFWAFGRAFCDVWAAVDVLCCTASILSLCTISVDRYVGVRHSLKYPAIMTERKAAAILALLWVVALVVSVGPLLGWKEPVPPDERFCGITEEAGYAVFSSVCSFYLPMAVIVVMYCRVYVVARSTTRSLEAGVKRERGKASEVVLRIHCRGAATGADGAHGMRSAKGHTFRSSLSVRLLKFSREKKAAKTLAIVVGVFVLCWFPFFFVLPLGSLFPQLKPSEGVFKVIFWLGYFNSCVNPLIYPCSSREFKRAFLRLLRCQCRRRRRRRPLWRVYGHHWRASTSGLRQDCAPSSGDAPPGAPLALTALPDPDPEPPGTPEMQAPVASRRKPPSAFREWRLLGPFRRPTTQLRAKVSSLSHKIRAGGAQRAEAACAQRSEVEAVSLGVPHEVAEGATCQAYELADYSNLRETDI
MEASURED_ENDPOINT: inhibition at 0.1 µM (%)
One number for each entry, in %.

State the recorded inhibition at 0.1 µM for every item in the following list.
1. Cc1ccc2c(c1)c1c(n2-c2ccc(-c3ccc4c(ccn4C)c3)cn2)CCN(C)C1 [Compound No. 136]
2. Cc1ccc2c(c1)c1c(n2-c2cccc3ccncc23)CCN(C)C1 [Compound 58]
3. Cc1ccc2c(c1)c1c(n2-c2ccccc2-c2cc3ccccc3s2)CCN(C)C1 [Compound No. 103]

Reply |
[59, 24, 62]

Ask | Bench note: what inhibition at 0.1 µM did Cc1ccc2c(c1)c1c(n2-c2ccc(-c3c(C)noc3C)cn2)CCN(C)C1 [Compound No. 137] show?
Reply | 74

----------
target: human recombinant adrenergic α2B receptor (Homo sapiens, UniProt P18089); construct: expressed in transfected cells; host or cells: CHO-K1; experiment: Radioligand binding, adrenergic α2B receptor ([3H]Rauwolscine); settings: 0.1 μM compound, CHO-K1 cells, read-out: Percentage inhibition of ligand binding, Adrenergic α2B
Sequence (P18089 whole entry): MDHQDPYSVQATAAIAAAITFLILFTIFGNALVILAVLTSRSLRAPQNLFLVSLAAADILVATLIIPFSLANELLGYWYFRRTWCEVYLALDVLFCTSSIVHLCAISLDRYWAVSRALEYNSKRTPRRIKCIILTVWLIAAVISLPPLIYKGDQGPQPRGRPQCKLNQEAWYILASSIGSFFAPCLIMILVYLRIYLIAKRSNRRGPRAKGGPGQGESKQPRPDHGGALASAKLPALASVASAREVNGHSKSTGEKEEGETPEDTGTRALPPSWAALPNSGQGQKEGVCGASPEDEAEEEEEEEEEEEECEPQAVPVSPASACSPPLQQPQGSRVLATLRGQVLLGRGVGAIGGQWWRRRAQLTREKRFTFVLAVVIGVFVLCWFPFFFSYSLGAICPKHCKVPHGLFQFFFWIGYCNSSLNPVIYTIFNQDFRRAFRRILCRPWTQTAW
Would you kindly list inhibition at 0.1 µM for each of these molecules?
Enter the number, and then the unit.

Answered cases to consult:
1) Cc1cc(C)c2c(c1)c1c(n2-c2ccc3ncccc3c2)CCN(C)C1 [Compound 48] ... 16%
2) Cc1ccc2c(c1)c1c(n2-c2ccc(-c3cncc4ccccc34)cn2)CCN(C)C1 [Compound No. 135] ... 99%
3) Cc1ccc2c(c1)c1c(n2-c2ccccc2-c2sccc2C)CCN(C)C1 [Compound No. 102] ... 90%

Ask | Please report the recorded inhibition at 0.1 µM for CC(=O)Nc1ccc(-c2cscc2-n2c3c(c4cc(C)ccc42)CN(C)CC3)cn1 [Compound 56] .
Reply | 90%

----------
target: human recombinant adrenergic α1D receptor (Homo sapiens, UniProt P25100); construct: expressed in transfected cells; host or cells: HEK-293; assay: Radioligand binding, adrenergic α1D receptor ([3H]Prazosin); conditions: 0.1 μM compound; HEK-293 cells; 0.6 nM [3H]Prazosin; read-out: Percentage inhibition of ligand binding, Adrenergic α1D
I'd be grateful if you could share measured inhibition at 0.1 µM for these entries.
Give bare numbers, in %.

Example entries and their recorded answers appear below.
1) Cc1ccc2c(c1)c1c(n2-c2cccc(-c3cncc4ccccc34)c2)CCN(C)C1 ... -1
2) Cc1ccc2c(c1)c1c(n2-c2ccccc2-c2ccnn2C)CCN(C)C1 ... 65
3) Cc1ccc2c(c1)c1c(n2-c2ccccc2-c2ccncc2)CCN(C)C1 ... 45

State recorded inhibition at 0.1 µM for all listed compounds.
1. Cc1ccc2c(c1)c1c(n2-c2ccc(-c3cncc4ccccc34)cn2)CCN(C)C1
2. Cc1ccc2c(c1)c1c(n2-c2ccc3nc(C)ccc3c2)CCN(C)C1
3. Cc1ccc2c(c1)c1c(n2-c2cccc(-c3cc4ccccc4s3)c2)CCN(C)C1
4. CNC(=O)c1cccc(-c2cscc2-n2c3c(c4cc(C)ccc42)CN(C)CC3)c1
5. Cc1ccc2c(c1)c1c(n2-c2cscc2-c2cnn(C)c2)CCN(C)C1
6. Cc1ccc2c(c1)c1c(n2-c2cccc(-c3ccc(F)nc3)c2)CCN(C)C1
7. Cc1ccc2c(c1)c1c(n2-c2cccc(-c3c(C)noc3C)c2)CCN(C)C1
8. Cc1ccc2c(c1)c1c(n2-c2cscc2-c2cnc(N(C)C)nc2)CCN(C)C1

Reply |
64
13
12
70
17
2
1
79

Quick batch: inhibition at 0.1 µM for everything below.
1. CNC(=O)c1ccc(-c2ccccc2-n2c3c(c4cc(C)ccc42)CN(C)CC3)cc1
2. Cc1ccc2c(c1)c1c(n2-c2ccc(-c3cccc4[nH]ncc34)cn2)CCN(C)C1
3. Cc1ccc2c(c1)c1c(n2-c2ccccc2-c2ccc(C)s2)CCN(C)C1
4. Cc1ccc2c(c1)c1c(n2-c2ccoc2)CCN(C)C1
5. Cc1ccc2c(c1)c1c(n2-c2ccc(-c3ccncc3)cn2)CCN(C)C1
6. Cc1ccc2c(c1)c1c(n2-c2cscc2-c2ccc3cnccc3c2)CCN(C)C1

Reply |
56
61
36
19
28
68

Record inhibition at 0.1 µM per entry; entries follow.
1. Cc1ccc2c(c1)c1c(n2-c2cccc(-c3ccnn3C)c2)CCN(C)C1
2. Cc1ccc2c(c1)c1c(n2-c2cscc2-c2sccc2C)CCN(C)C1
3. Cc1ccc2c(c1)c1c(n2-c2ccc(-c3cccc4ccccc34)cn2)CCN(C)C1

Reply |
1. 11
2. 62
3. 50

Count: 3. Required value per item: inhibition at 0.1 µM.
1. Cc1ccc2c(c1)c1c(n2-c2cscc2-c2cc3ccccc3s2)CCN(C)C1
2. Cc1ccc2c(c1)c1c(n2-c2cccc(-c3ccc(C)s3)c2)CCN(C)C1
3. Cc1ccc2c(c1)c1c(n2-c2ccccc2-c2cnn(C)c2)CCN(C)C1

Reply |
[67, -1, 22]
